# Test system: Plasmodium falciparum
# assayProtocol: Antiplasmodial activity against chloroquine-sensitive Plasmodium falciparum HB3 after 48 hrs by LDH reporter activity
# Type: functional, organism-based
# cond: HB3, 48 h
Please respond with reported IC50 for every item in the list.

INSERT INTO assay_data (structure, targetundertest, result) VALUES
  ('COc1ccc2c(OC)c3ccoc3nc2c1OC', 'Plasmodium falciparum', '47.5 µM'),
  ('COc1c(OC)c(OC)c2c(c1O)c(=O)c1ccccc1n2C', 'Plasmodium falciparum', '8.25 µM'),
  ('COc1c(OC)c(OC)c2c(c1OC)c(=O)c1ccccc1n2C', 'Plasmodium falciparum', '> 100 µM'),
  ('COc1c2c(cc3c1c(=O)c1cccc(OC)c1n3C)OCO2', 'Plasmodium falciparum', '23.2 µM'),
  ('COc1ccc2c(=O)c3c(OC)c4c(cc3n(C)c2c1OC)OCO4', 'Plasmodium falciparum', '32.3 µM');

Query block: // fetch Plasmodium falciparum IC50 for COc1cc2c(c(O)c1OC)c(=O)c1ccccc1n2C
Result block: 3.85 µM

---

# assayProtocol: Selectivity index, ratio of IC50 for human KB cells to IC50 for chloroquine-sensitive Plasmodium falciparum HB3
# Format: toxicity, cell-based
# cond: read-out: Ratio IC50
assayMetric: selectivity ratio
One number for each entry.

Query block: Would you mind telling me what selectivity ratio value was observed for COc1c(OC)c(OC)c2c(c1O)c(=O)c1ccccc1n2C ?
Result block: 22
